Subject Of Test: CYP1A2 (Homo sapiens, UniProt P05177)
Sequence (P05177 whole entry): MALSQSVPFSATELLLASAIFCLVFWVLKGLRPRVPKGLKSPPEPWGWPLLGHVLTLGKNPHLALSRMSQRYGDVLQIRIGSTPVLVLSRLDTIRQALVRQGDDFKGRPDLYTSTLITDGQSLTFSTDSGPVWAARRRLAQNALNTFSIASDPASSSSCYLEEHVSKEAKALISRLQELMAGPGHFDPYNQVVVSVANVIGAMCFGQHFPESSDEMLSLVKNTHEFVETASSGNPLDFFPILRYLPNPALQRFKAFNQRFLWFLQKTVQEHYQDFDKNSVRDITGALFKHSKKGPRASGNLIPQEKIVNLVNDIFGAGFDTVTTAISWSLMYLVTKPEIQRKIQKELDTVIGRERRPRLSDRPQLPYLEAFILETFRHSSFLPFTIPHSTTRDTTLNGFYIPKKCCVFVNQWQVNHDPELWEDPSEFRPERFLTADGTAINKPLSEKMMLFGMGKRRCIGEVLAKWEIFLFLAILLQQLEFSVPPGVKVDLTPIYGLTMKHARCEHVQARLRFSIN
Assay: in vitro
Measurement Name: inhibition at 35 min, 6.65 µM (%)

Molecule | Endpoint Result
Cc1nc2c([nH]1)c(=O)n(C)c(=O)n2Cc1ccco1 [furafylline] | 72

This collection of values is drawn from patent US20020182749A1.
